- assay.target: GlcNAc(b1-3)Gal(b1-4)GlcNAc(b1-3)Gal(b1-4)GlcNAc(b1-2)[GlcNAc(b1-3)Gal(b1-4)GlcNAc(b1-3)Gal(b1-4)GlcNAc(b1-6)]Man(a1-6)[GlcNAc(b1-3)Gal(b1-4)GlcNAc(b1-3)Gal(b1-4)GlcNAc(b1-2)Man(a1-3)]Man(b1-4)GlcNAc(b1-4)[Fuc(a1-6)]GlcNAc
- assay.procedure: glycan array binding signal (z-score within array); higher = stronger binding
- condition.notes: glycan notation: IUPAC condensed, linker removed
Many of the other results were omitted from the sample, so the strongest signals are more common in it than they were.
measurement.name: glycan array binding signal (z-score)
Keep it simple and answer with nothing but the number.

Examples with their reported glycan array binding signal (z-score) follow.
[[record]]
binder = "SUN4 (Saccharomyces cerevisiae), P53616 (protein) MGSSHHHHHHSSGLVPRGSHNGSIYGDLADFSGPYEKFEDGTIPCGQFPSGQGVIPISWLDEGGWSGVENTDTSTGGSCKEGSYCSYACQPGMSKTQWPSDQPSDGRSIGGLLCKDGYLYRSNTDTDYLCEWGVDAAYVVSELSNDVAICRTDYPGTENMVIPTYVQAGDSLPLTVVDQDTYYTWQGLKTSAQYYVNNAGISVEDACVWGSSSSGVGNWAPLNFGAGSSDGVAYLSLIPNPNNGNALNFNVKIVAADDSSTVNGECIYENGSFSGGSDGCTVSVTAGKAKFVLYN"
measured = 1.97

[[record]]
binder = "KISKRILTGKK [NK11 (Sus scrofa)]"
measured = 2.97


glycan array binding signal (z-score) measured on SP8524D-bot-399-27-399 (Bacteroides ovatus) (protein) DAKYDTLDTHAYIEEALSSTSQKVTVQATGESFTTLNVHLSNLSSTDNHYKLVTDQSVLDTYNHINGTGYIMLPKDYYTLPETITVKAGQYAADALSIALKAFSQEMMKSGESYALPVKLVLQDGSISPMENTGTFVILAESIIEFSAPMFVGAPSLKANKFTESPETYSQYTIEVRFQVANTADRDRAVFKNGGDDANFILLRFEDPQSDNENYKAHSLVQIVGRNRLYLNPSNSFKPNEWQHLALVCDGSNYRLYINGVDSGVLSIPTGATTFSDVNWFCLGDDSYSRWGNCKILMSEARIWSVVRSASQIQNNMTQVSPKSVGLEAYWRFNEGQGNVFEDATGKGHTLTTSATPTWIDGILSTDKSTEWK = 1.11
